Target: T1, human CD24 (human, UniProt P25063 27-59, heavily glycosylated, GPI-anchored (as described in the background))
T1 construct: whole, on cells; Target of all cell-based FACS assays; also called hCD24; Cluster of differentiation 24
T1 chain (looked up): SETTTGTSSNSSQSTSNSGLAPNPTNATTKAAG
Assay: FACS, 293F-hCD24 cells
PARAMETER_MEASURED: EC50 (nM)
Enter your answer as a number in nM; do not include the unit.

Could you tell me which EC50 is on file for 71A4F12 (antibody, V domains shown, mouse monoclonal antibody) VH: EVQLQQSGPELVKPGASVKIPCKASGYTFTAYNMDWVKQSHGMSLEWIGDINPNNGDTVYNQNFKGKATLTVDKSSSTAYMELRSLTSEDTAVYYCARRGSYYYGSSHYALDFWGQGTSVSVSS VL: DIQMTQITSSLSASLGNRVTISCRASQDIRNYLNWYQQKPDGTVKLLIYYTSRLLSGVPSRFSGSGSGTDYSLTISNLEQEDIATYFCQQDNSLPRTFGGGTRLEIR ?
6.74
